- Test system: RARa homodimer (NR concentration 270 nM)
- experiment.notes: PBM binding z-score (relative to random genomic background probes); higher = stronger binding; sequences stand for … in GC…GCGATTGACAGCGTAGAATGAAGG
In this section, each of the sequences is paired with its reported PBM binding z-score.
Could you keep your reply to the number by itself?

>  <chain>
ACTATTTGTTGAGACGAGGGCAACCGATAGGTTG

>  <tested.on>
RARa homodimer (NR concentration 270 nM)

>  <PBM binding z-score>
0.779

$$$$
>  <chain>
CGTCCAAGATCATAGGAGGTCAGTGAAGACAGAT

>  <tested.on>
RARa homodimer (NR concentration 270 nM)

>  <PBM binding z-score>
0.513

$$$$
>  <chain>
CGAACAAGGTCAAGGACAGTGAATCTCCGCACGC

>  <tested.on>
RARa homodimer (NR concentration 270 nM)

>  <PBM binding z-score>
0.971

$$$$
>  <chain>
TCGCGGAGGACACGAAAGGTCAGAGCTCGACATC

>  <tested.on>
RARa homodimer (NR concentration 270 nM)

>  <PBM binding z-score>
1.04

$$$$
>  <chain>
TTACCAAGGTGAAGGTCGTTGAGCCCTCTGTAGA

>  <tested.on>
RARa homodimer (NR concentration 270 nM)

>  <PBM binding z-score>
-0.872

$$$$

Form field PBM binding z-score, entry CCTACTGGGCCATTCAGAGGTAATTGATCATATG : -0.252

ACTAGTTTGTCAGCTGAGGTCACACACAATTCGG yielded PBM binding z-score of 1.24

get_value(item= CCGACTGGGGCAGAAAGGTTAGCATACCATCCGG , readout=PBM binding z-score) returns 0.154

Entry TCTGCTAGGTGAACGATGGTCAGCTAATCTGCTA , PBM binding z-score reported as -1.26

* * *

- Test system: RARa homodimer (NR concentration 270 nM)
- experiment.notes: PBM binding z-score (relative to random genomic background probes); higher = stronger binding; sequences stand for … in GC…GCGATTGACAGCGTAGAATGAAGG
Mark Met for reported PBM binding z-score of 0.8 or greater; mark Not met for anything smaller.

>  <chain>
TCGAGTAGGATAGGGGCATTCAGAATGGCGTCGA

>  <class>
Not met

$$$$
>  <chain>
CCTCGGAGGAAAGAAGGTCAGAGCTGTCCGCTTT

>  <class>
Not met

$$$$

Query: For this sequence, is measured PBM binding z-score 0.8 or higher? CTACGAAGGTGAACAAGGTCGTTGATTACTATTC
Reply: Not met

Query: Has AGAACGAGGGCACGCTGATTTGATAGCAGAGTAG a recorded PBM binding z-score greater than or equal to 0.8?
Reply: Not met

Query: Could you verify whether the entry ACTTACGGGTCAACGAGGTTATTGCACGCGTATA shows PBM binding z-score of no less than 0.8?
Reply: Met

Query: Is PBM binding z-score for CCGACTGGGGCAGAAAGGTTAACATACCATCCGG at or above 0.8?
Reply: Not met

Query: Quick check: does ATCGAAAGGTCGACGAGCTGAGTATACACCGTTT have PBM binding z-score greater than or equal to 0.8?
Reply: Not met

Query: Is the recorded value of PBM binding z-score equal to or greater than 0.8 for this sequence? GCTATTAGTTGAAAGGGGAACCGAATGATTCTCG
Reply: Met

Query: Has ACTTACGGGTCCACGAGGTTATAGCACGCGTATA a recorded PBM binding z-score greater than or equal to 0.8?
Reply: Not met

Query: API: above_or_equal(metric=PBM binding z-score, cutoff=0.8) for item CGTCCAAGGTCAAGGTCAGAGAAAGAGACTCGAA
Reply: Met

Query: Confirm if PBM binding z-score reported for the sequence TCTAGCAGGTCAGAGGGTCACTCAAGAGGTACGG is 0.8 or above.
Reply: Not met

Query: Does AGTCAAAGTTCATTTAGGTAACGTAAGATATGCT have a reported PBM binding z-score of at least 0.8?
Reply: Met

Query: Reported PBM binding z-score reaches at least 0.8 for CCTAGTTGGTCAGGAGGTCAGACACCGGATATGA ?
Reply: Met

Query: Kindly determine if PBM binding z-score recorded for CCTAATGGGCCAAAAAGGTCATTGATGCCGATAA is above or exactly 0.8.
Reply: Met

Query: In plain terms: is recorded PBM binding z-score at least 0.8 for AGAATGAGGTTATTTAGATCAGGGAATTGCGGTC ?
Reply: Not met

Query: Reported PBM binding z-score reaches at least 0.8 for CAAACTAGGTCACCGGAAGGCCAAAGTCCGCATG ?
Reply: Not met

Query: Confirm if PBM binding z-score reported for the sequence TATACAGGGTCAAAGGCCGGAGTACGAATGTCGA is 0.8 or above.
Reply: Met

Query: Please check the record CGACCGAGGGCATGAGTTGATAGCAAATGCCGAT and state if its PBM binding z-score is at or above 0.8.
Reply: Not met

Query: Hi team, for CCTAGTTGGTCAGGGTCACACACGCTATAGGTAC , is the recorded PBM binding z-score at or above 0.8?
Reply: Met

* * *

- System: RXRa DBDmut IVT, anti-RXR (DBD mutation: RXRa K156A/R161A, NR concentration 90 nM)
- experiment.notes: PBM binding z-score (relative to random genomic background probes); higher = stronger binding; sequences stand for … in GC…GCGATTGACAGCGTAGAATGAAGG
Known PBM binding z-score of a selection of sequences
API doc: respond with a numeric literal and nothing else, no unit.

CCTCGGAGGACAACAGGCGGTCAGAGCTGCCAGA has a reported PBM binding z-score of -0.164

Just so you know, measured PBM binding z-score for ACTAGTTGGGCAGCTGAGGTCACACACAATTCGG came out at 1.21

get_value(item= TCTTGTAGATCAAGCAGGTTTAGAAAGCCTGAGT , readout=PBM binding z-score) returns 0.521

TAGCCTAGGTCAGATCGCGCCAGTATACGCTATA has a reported PBM binding z-score of -0.216

Quick note, PBM binding z-score for GCTTACGGGTCAAAGGTTATTGCATGAATAGAAT landed at 2.83

PBM binding z-score reading for ATCTCTTGGTAAAAGTTCAGTGAATCCCGAGGAT : 0.705

* * *

- Test system: PXR homodimer (NR concentration 270 nM)
- experiment.notes: PBM binding z-score (relative to random genomic background probes); higher = stronger binding; sequences stand for … in GC…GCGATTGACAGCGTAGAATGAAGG
If the reported PBM binding z-score equals or exceeds -0.7, assign class 1. If not, assign class 0.

Query: Exam item: decide whether the reported PBM binding z-score for CTTTACGGGTCACTGACAGGTTATAGCATTTGGA is at least -0.7.
Reply: class 1

Query: Is the recorded value of PBM binding z-score equal to or greater than -0.7 for this sequence? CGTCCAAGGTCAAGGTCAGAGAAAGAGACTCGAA
Reply: class 1

Query: Record CAAACTAGGTCACAGAGGTCAATGTCCGTGCGTA ; criterion: PBM binding z-score no lower than -0.7. Met?
Reply: class 1

Query: State whether the measured PBM binding z-score reaches -0.7, counting equality as reaching it, for TCTTGTAGATCAACAGGAAGTTAAGAAAGATCGA
Reply: class 0

Query: Kindly determine if PBM binding z-score recorded for TCTTTTAGATCAAGCAGGTTAAGAAAGCCTGAGT is above or exactly -0.7.
Reply: class 1

* * *

- Tested on: PPARg:RXRa 270nM:90nM, anti-RXR (NR concentration 270 nM, RXRa partner concentration 90 nM)
- experiment.notes: PBM binding z-score (relative to random genomic background probes); higher = stronger binding; sequences stand for … in GC…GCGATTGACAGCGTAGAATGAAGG
Listed here are sequences together with their documented PBM binding z-score.

Look over these answered cases.
>  <chain>
CGGCCAAGGTCAAGGTCAGTGAAAGAGACTCGAA

>  <PBM binding z-score>
6.23

$$$$
>  <chain>
ATCTCTAGGTAACCAAGTTCAATGAATGCCGAAC

>  <PBM binding z-score>
1.15

$$$$
>  <chain>
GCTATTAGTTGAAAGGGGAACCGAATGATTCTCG

>  <PBM binding z-score>
3.07

$$$$
>  <chain>
TGAATGAGGTTATAAGATCAGTGAACGTTGCAAA

>  <PBM binding z-score>
1.72

$$$$
>  <chain>
GATACAGGGTCAAGGGCAGAGTACGCGTATTGAT

>  <PBM binding z-score>
5.97

$$$$
>  <chain>
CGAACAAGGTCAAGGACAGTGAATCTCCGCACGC

>  <PBM binding z-score>
5.82

$$$$

What the record says about ACAGACAGGTGAGTGAAGGCAACTCAGCTGGACG : PBM binding z-score is -0.0793
